Below are pIC50 values recorded for CSF1R (FMS) (Homo sapiens, UniProt P07333).
pIC50: −log10 of the molar value. Counter-ions that a name gives are not always drawn.

{"Compound": "CC(C)C[C@H](NCc1cccc(-c2cnc(N)c(NCc3c(Cl)cccc3Cl)n2)c1)C(=O)OC1CCCC1", "Target Entity": "CSF1R (FMS) (Homo sapiens, UniProt P07333)", "pIC50": "< 5.30"}
{"Compound": "Nc1ncc(-c2cccc(CNC3CCN[C@H](C(=O)OC4CCCC4)C3)c2)nc1NCc1c(Cl)cccc1Cl (some centres unmarked) [Example 35, di-formate]", "Target Entity": "CSF1R (FMS) (Homo sapiens, UniProt P07333)", "pIC50": "> 7.00"}
{"Compound": "CN(C(=O)c1ccc(-c2cnc(N)c(NCc3c(Cl)cccc3Cl)n2)cc1)C1CCN[C@@H](C(=O)OC2CCCC2)C1 (some centres unmarked)", "Target Entity": "CSF1R (FMS) (Homo sapiens, UniProt P07333)", "pIC50": "6.52 to 7.00"}
{"Compound": "Nc1ncc(-c2ccc(CNC3CCN[C@H](C(=O)OC4CCCC4)C3)cc2)nc1NCc1c(Cl)cccc1Cl (some centres unmarked)", "Target Entity": "CSF1R (FMS) (Homo sapiens, UniProt P07333)", "pIC50": "> 7.00"}
{"Compound": "Nc1ncc(-c2ccc(CN3CCN[C@H](C(=O)OC4CCCC4)C3)cc2)nc1NCc1c(Cl)cccc1Cl", "Target Entity": "CSF1R (FMS) (Homo sapiens, UniProt P07333)", "pIC50": "5.30 to 6.00"}
{"Compound": "Nc1ncc(-c2ccc(CNC3CCN[C@@H](C(=O)OC4CCCC4)C3)cc2)nc1NCc1c(F)cccc1F (some centres unmarked) [Example 14, di-formate]", "Target Entity": "CSF1R (FMS) (Homo sapiens, UniProt P07333)", "pIC50": "6.52 to 7.00"}
{"Compound": "Nc1ncc(-c2cccc(CNC3(C(=O)OC4CCCC4)CCC3)c2)nc1NCc1c(Cl)cccc1Cl [Example 42, di-formate]", "Target Entity": "CSF1R (FMS) (Homo sapiens, UniProt P07333)", "pIC50": "< 5.30"}
{"Compound": "CC(C)(C)OC(=O)C(C)(C)NCc1cccc(-c2cnc(N)c(NCc3c(Cl)cccc3Cl)n2)c1 [Example 41, formate salt]", "Target Entity": "CSF1R (FMS) (Homo sapiens, UniProt P07333)", "pIC50": "5.30 to 6.00"}
{"Compound": "Nc1ncc(-c2cccc(CCNC3(C(=O)OC4CCCC4)CCC3)c2)nc1NCc1c(Cl)cccc1Cl", "Target Entity": "CSF1R (FMS) (Homo sapiens, UniProt P07333)", "pIC50": "5.30 to 6.00"}
{"Compound": "CCN(Cc1ccc(-c2cnc(N)c(NCc3c(Cl)cccc3Cl)n2)cc1)C1CCN[C@@H](C(=O)OC2CCCC2)C1 (some centres unmarked)", "Target Entity": "CSF1R (FMS) (Homo sapiens, UniProt P07333)", "pIC50": "6.52 to 7.00"}
{"Compound": "CCN(Cc1ccc(-c2cnc(N)c(NCc3c(Cl)cccc3Cl)n2)cc1)C1CCN[C@@H](C(=O)OC(C)(C)C)C1 (some centres unmarked)", "Target Entity": "CSF1R (FMS) (Homo sapiens, UniProt P07333)", "pIC50": "6.52 to 7.00"}
{"Compound": "Nc1ncc(-c2cccc(CNC3CCN[C@@H](C(=O)OC4CCCC4)C3)c2)nc1NCc1c(Cl)cccc1Cl (some centres unmarked)", "Target Entity": "CSF1R (FMS) (Homo sapiens, UniProt P07333)", "pIC50": "> 7.00"}
{"Compound": "CC(C)(C)OC[C@H](NCc1cccc(-c2cnc(N)c(NCc3c(Cl)cccc3Cl)n2)c1)C(=O)OC(C)(C)C", "Target Entity": "CSF1R (FMS) (Homo sapiens, UniProt P07333)", "pIC50": "< 5.30"}
{"Compound": "Nc1ncc(-c2ccc(CN3CCNC(C(=O)OC4CCCC4)C3)cc2)nc1NCc1c(Cl)cccc1Cl (centres unmarked)", "Target Entity": "CSF1R (FMS) (Homo sapiens, UniProt P07333)", "pIC50": "6.00 to 6.52"}

---

Test system: MCP-1
Test Name: MCSF-stimulation of human whole blood, MCP-1 levels by sandwich ELISA
Type: cell-based
Conditions: inhibitor 2 hours before MCSF 50 ng/ml, 22 hrs, MCP-1 in cell-free supernatants, read-out: Inhibitor activity versus MCP-1

{"Compound": "CC(C)C[C@H](NCCn1cc(-c2cnc(N)c(NCc3c(Cl)cccc3Cl)n2)cn1)C(=O)OC1CCCC1", "IC50": "1000 to 5000 nM"}
{"Compound": "Nc1ncc(-c2ccc(CNC3CCN[C@@H](C(=O)OC4CCCC4)C3)cc2)nc1NCc1c(F)cccc1F (stereo partly shown) [Example 14, di-formate]", "IC50": "300 to 1000 nM"}
{"Compound": "Nc1ncc(-c2cccc(CCNC3CCN[C@@H](C(=O)OC4CCCC4)C3)c2)nc1NCc1c(Cl)cccc1Cl (stereo partly shown)", "IC50": "100 to 300 nM"}
{"Compound": "Cc1cc(-c2cnc(N)c(NCc3c(Cl)cccc3Cl)n2)ccc1CNC1CCN[C@@H](C(=O)OC2CCCC2)C1 (stereo partly shown)", "IC50": "< 100 nM"}

---

Form field: pIC50 (one value per entry).
Test system: MCP-1
Test Name: MCSF-stimulation of human whole blood, MCP-1 levels by sandwich ELISA
Type: cell-based
Conditions: inhibitor 2 hours before MCSF 50 ng/ml, 22 hrs, MCP-1 in cell-free supernatants, read-out: Inhibitor activity versus MCP-1
pIC50: −log10 of the molar value.

{"Compound": "CC(C)C[C@H](NCCn1cc(-c2cnc(N)c(NCc3c(Cl)cccc3Cl)n2)cn1)C(=O)OC(C)(C)C [Example 58]", "pIC50": "< 5.30"}
{"Compound": "CC(C)(C)OC[C@H](NCc1cccc(-c2cnc(N)c(NCc3c(Cl)cccc3Cl)n2)c1)C(=O)OC(C)(C)C [Example 44]", "pIC50": "< 5.30"}
{"Compound": "Nc1ncc(-c2ccc(CN3CCN[C@@H](C(=O)OC4CCCC4)C3)cc2)nc1NCc1c(Cl)cccc1Cl [Example 11]", "pIC50": "> 7.00"}
{"Compound": "Nc1ncc(-c2cccc(CCN3CCNC(C(=O)OC4CCCC4)C3)c2)nc1NCc1c(Cl)cccc1Cl (centres unmarked) [Example 52]", "pIC50": "6.52 to 7.00"}
{"Compound": "Cc1cc(-c2cnc(N)c(NCc3c(Cl)cccc3Cl)n2)ccc1CNC1CCN[C@@H](C(=O)OC(C)(C)C)C1 (some centres unmarked) [Example 26]", "pIC50": "6.00 to 6.52"}
{"Compound": "CC(C)(C)OC(=O)C1CN(Cc2ccc(-c3cnc(N)c(NCc4c(Cl)cccc4Cl)n3)cc2)CCN1 (centres unmarked) [Example 23]", "pIC50": "6.00 to 6.52"}
{"Compound": "Nc1ncc(-c2cccc(CN3CCN[C@@H](C(=O)OC4CCCC4)C3)c2)nc1NCc1c(Cl)cccc1Cl [Example 37]", "pIC50": "> 7.00"}
{"Compound": "CCN(Cc1ccc(-c2cnc(N)c(NCc3c(Cl)cccc3Cl)n2)cc1)C1CCN[C@@H](C(=O)OC2CCCC2)C1 (some centres unmarked) [Example 27]", "pIC50": "> 7.00"}
{"Compound": "Nc1ncc(-c2cccc(CN3CCN[C@H](C(=O)OC4CCCC4)C3)c2)nc1NCc1c(Cl)cccc1Cl [Example 36]", "pIC50": "6.52 to 7.00"}
{"Compound": "CC(C)(NCCc1cccc(-c2cnc(N)c(NCc3c(Cl)cccc3Cl)n2)c1)C(=O)OC1CCCC1 [Example 48]", "pIC50": "6.00 to 6.52"}
{"Compound": "CC(C)(C)OC(=O)[C@H]1CC(NCc2cccc(-c3cnc(N)c(NCc4c(Cl)cccc4Cl)n3)c2)CCN1 (some centres unmarked) [Example 46]", "pIC50": "6.00 to 6.52"}
{"Compound": "CN(C(=O)c1ccc(-c2cnc(N)c(NCc3c(Cl)cccc3Cl)n2)cc1)C1CCN[C@@H](C(=O)OC(C)(C)C)C1 (some centres unmarked) [Example 5]", "pIC50": "5.30 to 6.00"}
{"Compound": "Nc1ncc(-c2cccc(CCNC3CCN[C@H](C(=O)OC4CCCC4)C3)c2)nc1NCc1c(Cl)cccc1Cl (some centres unmarked) [Example 51]", "pIC50": "6.52 to 7.00"}
{"Compound": "CC(C)CN(Cc1ccc(-c2cnc(N)c(NCc3c(Cl)cccc3Cl)n2)cc1)C1CCN[C@@H](C(=O)OC2CCCC2)C1 (some centres unmarked) [Example 29]", "pIC50": "5.30 to 6.00"}
{"Compound": "Nc1ncc(-c2ccc(CNC3CCN[C@H](C(=O)OC4CCCC4)C3)cc2)nc1NCc1c(Cl)cccc1Cl (some centres unmarked) [Example 8]", "pIC50": "6.52 to 7.00"}
{"Compound": "Nc1ncc(-c2cnn(CCNC3CCN[C@H](C(=O)OC4CCCC4)C3)c2)nc1NCc1c(Cl)cccc1Cl (some centres unmarked) [Example 56, di-formate]", "pIC50": "6.00 to 6.52"}
{"Compound": "CC(C)(C)OC(=O)[C@@H]1CC(NCc2cccc(-c3cnc(N)c(NCc4c(Cl)cccc4Cl)n3)c2)CCN1 (some centres unmarked) [Example 47, di-formate]", "pIC50": "6.00 to 6.52"}
{"Compound": "CC(C)C[C@H](NCc1cccc(-c2cnc(N)c(NCc3c(Cl)cccc3Cl)n2)c1)C(=O)OC1CCCC1 [Example 38]", "pIC50": "< 5.30"}
{"Compound": "Nc1ncc(-c2cccc(CCNC3(C(=O)OC4CCCC4)CCC3)c2)nc1NCc1c(Cl)cccc1Cl [Example 49]", "pIC50": "5.30 to 6.00"}
{"Compound": "CC(C)(C)OC(=O)[C@H]1CC(NCc2ccc(-c3cnc(N)c(NCc4c(Cl)cccc4Cl)n3)cc2)CCN1 (some centres unmarked) [Example 21]", "pIC50": "6.00 to 6.52"}
{"Compound": "CC(C)(C)OC(=O)[C@H]1CC(NC(=O)c2cccc(-c3cnc(N)c(NCc4c(Cl)cccc4Cl)n3)c2)CCN1 (some centres unmarked) [Example 33]", "pIC50": "5.30 to 6.00"}
{"Compound": "Nc1ncc(-c2ccc(C(=O)NC3CCN[C@@H](C(=O)OC4CCCC4)C3)cc2)nc1NCc1c(Cl)cccc1Cl (some centres unmarked) [Example 1]", "pIC50": "6.00 to 6.52"}
{"Compound": "CCN(Cc1ccc(-c2cnc(N)c(NCc3c(Cl)cccc3Cl)n2)cc1)C1CCN[C@@H](C(=O)OC(C)(C)C)C1 (some centres unmarked) [Example 30]", "pIC50": "6.52 to 7.00"}
{"Compound": "C[C@H](NCc1cccc(-c2cnc(N)c(NCc3c(Cl)cccc3Cl)n2)c1)C(=O)OC(C)(C)C [Example 45]", "pIC50": "5.30 to 6.00"}
{"Compound": "Nc1ncc(-c2ccc(CN3CCNC(C(=O)OC4CCCC4)C3)cc2)nc1NCc1c(Cl)cccc1Cl (centres unmarked) [Example 9]", "pIC50": "> 7.00"}
{"Compound": "Nc1ncc(-c2ccc(CNC3CCN[C@@H](C(=O)OC4CCCC4)C3)cc2)nc1NCc1c(Cl)cccc1Cl (some centres unmarked) [Example 7]", "pIC50": "6.52 to 7.00"}

Value source: patent US9604940B2
